Target: Tau aggregates in P301L-Tau-FL-GFP HEK293 cells (Homo sapiens, UniProt P10636, P618L)
Construct: express full-length human tau T40 (2N4R) carrying the P301L mutation with a GFP tag; expressed in transfected cells
Sequence (P10636 1-441 isoform P10636-8 P301L): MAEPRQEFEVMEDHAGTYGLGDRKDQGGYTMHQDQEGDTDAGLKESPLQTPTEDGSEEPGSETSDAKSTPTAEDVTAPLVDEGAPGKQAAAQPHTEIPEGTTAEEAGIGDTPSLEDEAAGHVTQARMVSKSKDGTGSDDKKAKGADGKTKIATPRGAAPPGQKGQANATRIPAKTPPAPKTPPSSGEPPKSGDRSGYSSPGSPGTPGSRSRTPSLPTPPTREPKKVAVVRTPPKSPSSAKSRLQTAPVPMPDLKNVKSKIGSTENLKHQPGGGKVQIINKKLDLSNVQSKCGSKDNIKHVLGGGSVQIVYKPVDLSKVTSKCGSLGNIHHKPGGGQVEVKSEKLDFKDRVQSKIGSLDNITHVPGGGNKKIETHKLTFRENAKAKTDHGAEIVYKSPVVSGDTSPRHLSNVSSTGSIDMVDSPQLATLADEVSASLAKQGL
Assay: Tau degradation assay (APNmAb005 ELISA-based Tau aggregation assay)
Format: cell-based
Conditions: 1 μM of compound, 24 hours, P301L-Tau-FL-GFP HEK293 cells seeded with rTg4510 brain lysate; read-out: Activity (reduction of tau aggregates)
From the text: (A). Cell-based model of Tau inclusion formation: Six month old rTg4510 mouse brain lysates were used as the source of tau seeds, prepared as described in Example 26 above. P301L-Tau-FL-GFP HEK293 cells represent HEK293 cells express full-length human tau T40 (2N4R) carrying the P301L mutation with a GFP tag (P301L-Tau-FL-GFP). […]
Reported inhibition at 1 µM by item:

Some solved entries appear below for comparison.
>>> value_measured("CN(C)c1ccc(-c2ccc(-c3nc4ccc(OCCOCCOc5ccc6c(c5)CN(C5CCC(=O)NC5=O)C6=O)cc4o3)cc2)cn1 (stereo not drawn)")
"10 to 20%"
>>> value_measured("CN(C)c1ccc(-c2ccc(-c3nc4ccc(NCCOCCOCCOCCOCCOCCOc5ccc6c(c5)C(=O)N(C5CCC(=O)NC5=O)C6=O)cc4s3)cc2)cn1 (stereo not drawn)")
"< 10%"

Turning now to a further molecule:
Provide only the value of recorded inhibition at 1 µM for CN(C)c1ccc(-c2ccc(-c3nc4ccc(NCCOCCOCCOCCOc5ccc6c(c5)C(=O)N(C5CCC(=O)NC5=O)C6=O)cc4s3)cc2)cn1 (stereo not drawn) < 10%
